- target or test system: KRas Q61H mutant (Homo sapiens (Human), UniProt P01116, Q61H)
- Sequence (P01116-2 other isoform, or with tags, fused parts or gaps Q61H): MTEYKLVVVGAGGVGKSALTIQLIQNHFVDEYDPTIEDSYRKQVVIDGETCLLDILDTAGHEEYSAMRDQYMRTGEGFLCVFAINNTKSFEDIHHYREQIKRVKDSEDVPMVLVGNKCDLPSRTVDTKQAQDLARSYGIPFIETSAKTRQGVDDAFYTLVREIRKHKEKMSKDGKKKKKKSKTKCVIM
- procedure summary: Ras GTP binding domain inhibition assay (labeled GTP)
- particulars: 20 μM compound; read-out: % Inhibition at 20 μM KRas Q61H
Field: inhibition at 20 µM. Provide a value for each of the compounds that follow.

Query inhibition at 20 µM on KRas Q61H mutant (Homo sapiens (Human), UniProt P01116, Q61H) for Cc1cnc(-c2ccccn2)nc1NC(=O)Cc1ccc2cnccc2c1 [drawing 2856] 51 to 75%

Query inhibition at 20 µM on KRas Q61H mutant (Homo sapiens (Human), UniProt P01116, Q61H) for Oc1nc(-c2ccccn2)nc2c(-c3ccccn3)csc12 [drawing 2896] 25 to 50%

Query inhibition at 20 µM on KRas Q61H mutant (Homo sapiens (Human), UniProt P01116, Q61H) for CC(C)(C(=O)Nc1ccnc(-c2ccccn2)n1)c1ccc(C#N)cc1 [drawing 2751] 51 to 75%

Query inhibition at 20 µM on KRas Q61H mutant (Homo sapiens (Human), UniProt P01116, Q61H) for O=C(c1csc2c(O)nc(-c3ccccn3)nc12)N1CCNC(Cc2ccccc2)C1 (centres unmarked) [drawing 2778] 51 to 75%

Query inhibition at 20 µM on KRas Q61H mutant (Homo sapiens (Human), UniProt P01116, Q61H) for Nc1nc(-c2ccccn2)nc2c(-c3ccccc3Cl)csc12 [drawing 2835] 1 to 25%

Query inhibition at 20 µM on KRas Q61H mutant (Homo sapiens (Human), UniProt P01116, Q61H) for CNS(=O)(=O)CCCNC(=O)c1csc2nc(-c3ccccn3)nc(N3CCOCC3)c12 [drawing 2791] 25 to 50%

Query inhibition at 20 µM on KRas Q61H mutant (Homo sapiens (Human), UniProt P01116, Q61H) for O=C(c1csc2c(O)nc(-c3ccccn3)nc12)N1CCNC(c2ccc(F)cc2)C1 (centres unmarked) [drawing 2807] 76 to 100%

Query inhibition at 20 µM on KRas Q61H mutant (Homo sapiens (Human), UniProt P01116, Q61H) for Oc1nc(-c2ccccn2)nc2c(-c3ccc(OC(F)F)cc3F)csc12 [drawing 2876] 51 to 75%

Query inhibition at 20 µM on KRas Q61H mutant (Homo sapiens (Human), UniProt P01116, Q61H) for Nc1nc(-c2ccccn2)nc2scc(C(=O)O)c12 [drawing 2906] 51 to 75%

Query inhibition at 20 µM on KRas Q61H mutant (Homo sapiens (Human), UniProt P01116, Q61H) for N#Cc1ccc(N2CCN(C(=O)c3csc4c(O)nc(-c5ccccn5)nc34)CC2)cc1 [drawing 2756] 51 to 75%

Query inhibition at 20 µM on KRas Q61H mutant (Homo sapiens (Human), UniProt P01116, Q61H) for COc1cc(CCN(C)C(=O)c2csc3nc(-c4ccccn4)nc(N4CCOCC4)c23)ccn1 [drawing 2781] 25 to 50%

Query inhibition at 20 µM on KRas Q61H mutant (Homo sapiens (Human), UniProt P01116, Q61H) for COc1cc(N2CCN(C(=O)c3csc4c(O)nc(-c5ccccn5)nc34)CC2)cc(OC)c1OC [drawing 2758] 25 to 50%

Query inhibition at 20 µM on KRas Q61H mutant (Homo sapiens (Human), UniProt P01116, Q61H) for O=C(c1csc2c(O)nc(-c3ccccn3)nc12)N1CC2CC1CN2c1ccccc1 (centres unmarked) [drawing 2838] 76 to 100%

Query inhibition at 20 µM on KRas Q61H mutant (Homo sapiens (Human), UniProt P01116, Q61H) for COc1ccc(C2CN(C(=O)c3csc4c(O)nc(-c5ccccn5)nc34)CCO2)cc1 (centres unmarked) [drawing 2768] 25 to 50%

Query inhibition at 20 µM on KRas Q61H mutant (Homo sapiens (Human), UniProt P01116, Q61H) for COc1ccnc(-c2nc(O)c3ccsc3n2)c1 [drawing 2708] 51 to 75%

Query inhibition at 20 µM on KRas Q61H mutant (Homo sapiens (Human), UniProt P01116, Q61H) for O=C(COCc1ccncc1)Nc1nc(-c2ccccn2)nc2sccc12 [drawing 2828] 51 to 75%

Query inhibition at 20 µM on KRas Q61H mutant (Homo sapiens (Human), UniProt P01116, Q61H) for Oc1nc(-c2ccccn2)nc2sc3c(c12)CCCNC3 [drawing 2852] 25 to 50%

Query inhibition at 20 µM on KRas Q61H mutant (Homo sapiens (Human), UniProt P01116, Q61H) for COCCCCNC(=O)c1csc2nc(-c3ccccn3)nc(N3CCOCC3)c12 [drawing 2789] 25 to 50%

Query inhibition at 20 µM on KRas Q61H mutant (Homo sapiens (Human), UniProt P01116, Q61H) for COc1ccc2c(c1)CCC2C(=O)Nc1ccnc(-c2ccccn2)n1 (centres unmarked) [drawing 2795] 25 to 50%

Query inhibition at 20 µM on KRas Q61H mutant (Homo sapiens (Human), UniProt P01116, Q61H) for Oc1nc(-c2ccccn2)nc2c(-c3cc(F)cc(F)c3)csc12 [drawing 2900] 51 to 75%
